Values were extracted from PubChem BioAssay (NCI).

System: HS 578T breast
Assay: NCI tumour cell line growth inhibition, 48 h
Please provide measured TGI for the entries that follow.
Answers are plain numbers, in µM.

Study these solved cases before continuing.
>>> numeric_value("CCN(CC)CCCC(C)Nc1c2ccc(Cl)cc2nc2cc(OC)c(OC)cc12 (centres undefined)")
10.1
>>> numeric_value("O=c1oc2c/c(=C\\c3ccccc3)c(=O)c3cccc1c3-2")
73.2
>>> numeric_value("CCOC(=O)NC1=C(N2CC2)C(=O)C(NC(=O)OCC)=C(N2CC2)C1=O")
24.7

Switching to the query record.
Prompt line: Look up TGI for this molecule: N#Cc1ccc(C2C3=C(CCCC3=O)OC3=C2C(=O)c2ccccc2C3=O)cc1 (centres undefined)
Response line: 9.37

====

Test system: HOP-62 NSCLC
Experiment: NCI tumour cell line growth inhibition, 48 h
Label Yes when TGI >= 3 µM; otherwise No.

>>> class_name("COC(=O)C(Cc1ccccc1)NC(=O)c1ccc(CNC(=S)NCc2cccc(CNC(=S)NCc3ccccc3)c2)cc1 (configuration not stated)")
"Yes"
>>> class_name("Cc1cc(Oc2cnc(=O)[nH]c2)cs1")
"Yes"
>>> class_name("Nc1nn(CC(O)CO)c(=O)s1 (configuration not stated)")
"Yes"

Prompt line: Check the entry `CCNc1cc2c3c(c1)CCCN3CCC2` : does TGI equal or exceed 3 µM?
Response line: Yes

Prompt line: Entry `O=C(NCCN1CCC(O)CC1)c1cc2c(o1)C(=O)c1ccccc1C2=O` please
Response line: No

Prompt line: Same again, this time with `Cc1oncc1NC1=CC(=O)C(=O)c2ccccc21`
Response line: Yes

Prompt line: Can you handle `CCOc1ccc2nc(-c3cccc(OCC(=O)NC(C)C)c3)nc(Nc3ccc(-c4cn[nH]c4)cc3)c2c1` next?
Response line: No

Prompt line: Queued: COc1ccc(SC2c3ccc(C)cc3Oc3nc(N)c(C#N)c(N)c32)cc1 (configuration not stated)
Response line: Yes

Prompt line: Similarly, `CCCCCC(O)(CCCCC)CCCCCCCCC1=C(O)c2ccccc2C(=O)C1=O` ?
Response line: Yes

Prompt line: Continue with `Cc1ccc(-c2cc(=O)c3cc(C)c(C)c(C(=O)O)c3o2)cc1`
Response line: Yes

Prompt line: For `COc1ccc2nc3cc([N+](=O)[O-])ccc3c(NCCCN(CCO)CCO)c2c1` then?
Response line: Yes

Prompt line: Next compound up: `COc1ccc(-c2cn(-c3cccc(C(=O)/C=C/c4ccc(O)c(OC)c4)c3)c(=O)[nH]2)cc1`
Response line: Yes

====

Field: TGI. Provide a value for each of the molecules that follow.
System: LOX IMVI melanoma
Test: NCI tumour cell line growth inhibition, 48 h
Give bare numbers, in µM.

>>> numeric_value("CCC/C(Cl)=N\\OC(=O)Nc1ccc(F)c([N+](=O)[O-])c1")
66.8
>>> numeric_value("O=C(O)c1ccc([S-])cc1.[Au+].c1ccc(CN2[CH-]N(Cc3ccccc3)C(c3ccccc3)=C2c2ccccc2)cc1")
1.37
>>> numeric_value("Cc1oncc1NC1=CC(=O)C(=O)c2ccccc21")
10.5

// input: 4 molecules below; output: TGI for each
1. CCOc1ccc2nc(-c3cccc(OCC(=O)NC(C)C)c3)nc(Nc3ccc(-c4cn[nH]c4)cc3)c2c1
2. COc1cc2c(cc1OC)-c1ccc3cc4c(cc3c1N(CCN(C)C)C2)OCO4
3. CN(C)CCNC(=O)c1cccc2[nH]c(-c3ccncc3)nc12
4. CSc1n(Cc2ccc3ccccc3c2)c(C)c[n+]1Cc1ccc2ccccc2c1

Response line:
[2.33, 1.32, 1.81, 1.9]

Please report TGI for every entry that follows.
1. CC(=O)C1COC(O)C1C (stereo not given)
2. COc1ccc(-c2cn(-c3cccc(C(=O)/C=C/c4ccc(O)c(OC)c4)c3)c(=O)[nH]2)cc1

Response line:
[39.4, 6.02]
